Exercise: state measured protein stability index for each of the variants provided.
B1: HDAC6 (parent)
chain: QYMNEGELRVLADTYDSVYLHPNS

- Variants of: B1
- experiment summary: protein stability index of a GFP-peptide fusion (GPS, HEK-293T) (PSI 1-6); higher = more stable;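 further: lentivirally expressed fusions sorted by FACS into six bins by GFP to DsRed ratio, PSI derived from sequencing read proportions per bin multiplied by bin number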
- cond: c terminus: a fixed tail appended
Lab note: record the figure alone, no unit after it.

protein stability index in this record for QYMNEGELRVLADTYDSLYLHPNS [V18L] : 1.95

protein stability index in this record for QYMNEGTLRVLADTYDSVYLHPNS [E7T] : 2.62

protein stability index in this record for RYMNEGELRVLADTYDSVYLHPNS [Q1R] : 1.43

protein stability index in this record for QYMNEGELRSLADTYDSVYLHPNS [V10S] : 2.81

protein stability index in this record for QYMNEGQLRVLADTYDSVYLHPNS [E7Q] : 1.66

protein stability index in this record for QYMAEGELRVLADTYDSVYLHPNS [N4A] : 1.8

protein stability index in this record for QYMNEGELRVLADTYDSVYNHPNS [L20N] : 2.42

protein stability index in this record for QYMNEGELRVLADTYDSVVLHPNS [Y19V] : 4.09

protein stability index in this record for QYMNEGELRVLADTYDFVYLHPNS [S17F] : 2.53

protein stability index in this record for QTMNEGELRVLADTYDSVYLHPNS [Y2T] : 2.9

protein stability index in this record for QYMNEGELRVLADTYDSVYLHPNR [S24R] : 2.4

protein stability index in this record for QYTNEGELRVLADTYDSVYLHPNS [M3T] : 2.99

protein stability index in this record for QRMNEGELRVLADTYDSVYLHPNS [Y2R] : 3.3

protein stability index in this record for QYMNEGELRVLADTYDQVYLHPNS [S17Q] : 2.5

protein stability index in this record for QYMNEGELRVLADTYDIVYLHPNS [S17I] : 2.32

protein stability index in this record for GYMNEGELRVLADTYDSVYLHPNS [Q1G] : 1.89

protein stability index in this record for QMMNEGELRVLADTYDSVYLHPNS [Y2M] : 1.73

protein stability index in this record for QYANEGELRVLADTYDSVYLHPNS [M3A] : 3.17

protein stability index in this record for QYMNEGELPVLADTYDSVYLHPNS [R9P] : 3.26

protein stability index in this record for QYMNEGELRVLADNYDSVYLHPNS [T14N] : 2.36

protein stability index in this record for QYMNEGELRVLADTLDSVYLHPNS [Y15L] : 2.69

protein stability index in this record for QYMNEGELRCLADTYDSVYLHPNS [V10C] : 2.51
